- ASSAY INFO: refractive index (Na D-line) (dimensionless)
- RECORDED CONDITIONS: 288.15 K; 101.33 kPa; Liquid; Standard Abbe refractometry
Hi there, I'd appreciate the recorded refractive index for every entry that follows.
# output: bare number, no unit

Input line: Dear colleague, I am looking for the recorded refractive index of the following molecule: CCCCCCn1cc[n+](C)c1.N#CN=C=[N-] [1-hexyl-3-methylimidazolium dicyanamide]
Output line: 1.50729

Input line: What about CCCCn1cc[n+](C)c1.O=S(=O)([O-])C(F)(F)F [1-butyl-3-methylimidazolium trifluoromethanesulfonate] ?
Output line: 1.44032

Input line: What about CCCC[N+]1(C)CCCC1.N#CN=C=[N-] [1-butyl-1-methylpyrrolidinium dicyanamide] ?
Output line: 1.49968

Input line: What about CCCCn1cc[n+](C)c1.N#CN=C=[N-] [1-butyl-3-methylimidazolium dicyanamide] ?
Output line: 1.51213

Input line: What about COS(=O)(=O)[O-].C[n+]1ccccc1 [1-methylpyridinium methylsulfate] ?
Output line: 1.51603

Input line: What about CCOS(=O)(=O)[O-].CCc1cccc[n+]1CC [1,2-diethylpyridinium ethylsulfate] ?
Output line: 1.51631

Input line: What about CCCC[n+]1cccc(C)c1.O=S(=O)([O-])C(F)(F)F [1-butyl-3-methylpyridinium trifluoromethanesulfonate] ?
Output line: 1.46446
